- tgt: N-terminal Xaa-Pro-Lys N-methyltransferase 1 (Homo sapiens)
- method_notes: qHTS Assay for Inhibitors of N-terminal methyltransferase 1 (NTMT1): LOPAC validation of the NTMT1 SAHH-coupled ThioGlo3 Assay (AID 1347143);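 note: SAH from peptide methylation measured as thiol fluorescence via SAHH coupling and ThioGlo3; nearly all actives have a fitted effect of over 70% in size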
- test_settings: recombinant NTMT1, SAHH-coupled ThioGlo3 fluorescence; series mostly up to 114 µM
Records with an inconclusive call do not appear. The source made the active and inactive calls. Calls come from the whole dose curve; as a rule, active = well fitted inhibition curve with a large enough effect; inconclusive = small, poorly fitted or top-dose-only effect; inactive = no such curve, though single readings can be large or run the other way.
Answer with one of the outcomes active, inactive

Worked cases, answers included:
Outcome? CC(CCc1ccccc1)NC(C)C(O)c1ccc(O)cc1 (stereo not drawn)
inactive

Outcome? NCC(O)c1ccc(O)cc1 (stereo not drawn)
inactive

Outcome? CNCC(O)c1ccc(O)cc1 (stereo not drawn)
inactive

Outcome? O=C1NCN(c2ccccc2)C12CCN(CC1COc3ccccc3O1)CC2 (stereo not drawn)
inactive

Continue with the compound presented below.
Outcome? N#CC(C#N)=Cc1ccc(O)c(O)c1
active

====

The entries below are paired with their reported max response.
- Tested on: NIH3T3
- method_notes: Cytotoxic Profiling of Annotated Libraries Using Quantitative High-Throughput Screening (AID 1296008); note: % is set by controls: 0 for no effect and ±100 for the full control effect; nearly all actives have a fitted effect of over 60% in size
- test_settings: Five cell lines viability, CellTiter-Glo ATP luminescence, 48-72 h; stronger effect = lower value
Records with an inconclusive call do not appear.
Give the value, in units of %, as a plain number.

Look at this compound and give its reported max response. CNCC(O)c1ccc(O)cc1 (stereo not drawn)
-18

***
Look at this compound and give its reported max response. Cc1ncc(CNC(=O)N(CCCl)N=O)c(N)n1
-2.43

Look at this compound and give its reported max response. C[C@]12CCC(=O)C(O)=C1CC[C@@H]1[C@@H]2CC[C@]2(C)C(=O)CC[C@@H]12
-5.78

Look at this compound and give its reported max response. CCC1(C2=NCCN2)Cc2ccccc2O1 (stereo not drawn)
-1.86

Look at this compound and give its reported max response. NCC(CC(=O)O)c1ccc(Cl)cc1 (stereo not drawn)
0.0761

Look at this compound and give its reported max response. CC(C)CC(N(C)C)C1(c2ccc(Cl)cc2)CCC1 (stereo not drawn)
-0.177

Look at this compound and give its reported max response. CC1NCCOC1c1ccccc1 (stereo not drawn)
1.83

Look at this compound and give its reported max response. c1ccc(C2CC2)c(OCC2=NCCN2)c1
-5.7

Look at this compound and give its reported max response. OCCOc1ccccc1
0.364

Look at this compound and give its reported max response. C[C@]12CC[C@H]3[C@@H](CCC4=CC(=O)CC[C@@H]43)[C@@H]1CC[C@@H]2OC(=O)CCc1ccccc1
-2.8

Look at this compound and give its reported max response. CCC(=O)C(CC(C)N(C)C)(c1ccccc1)c1ccccc1 (stereo not drawn)
-1.89

Look at this compound and give its reported max response. COc1ccccc1N1CCNCC1
-4.83

Look at this compound and give its reported max response. Cc1cccc(C)c1NC1=NCCCS1
1

Look at this compound and give its reported max response. O=C1CC[C@@]2(O)[C@H]3Cc4ccc(O)c5c4[C@@]2(CCN3CC2CC2)[C@H]1O5
-0.716

Look at this compound and give its reported max response. CC(C)=CCOc1c2occc2cc2ccc(=O)oc12
-0.907

Look at this compound and give its reported max response. CC(O)(CS(=O)(=O)c1ccc(F)cc1)C(=O)Nc1ccc(C#N)c(C(F)(F)F)c1 (stereo not drawn)
2.23

Look at this compound and give its reported max response. CC1=C2C[C@@H]3[C@@H](CC=C4C[C@@H](O)CC[C@@]43C)[C@@H]2CC[C@]12O[C@H]1C[C@H](C)CN[C@H]1[C@H]2C
0.588

Look at this compound and give its reported max response. Oc1ccc(Cl)cc1Cc1ccccc1
-10.2

====

- method_notes: High-throughput drug toxicity screening in the BPDCN cell line Cal-1 (AID 1224825);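 note: cells exposed to compounds for 48 h; 100% = DMSO and 0% = bortezomib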
- test_settings: Cal-1 BPDCN cell viability, qHTS; at 45.8 µM (top of the series)
Classify: criterion met when viability (% of control) is strictly less than 10%; criterion not met when viability (% of control) is not.

Worked cases, answers included:
In the record for N[C@@H](Cc1ccc(N(CCCl)CCCl)cc1)C(=O)O , is viability (% of control) less than 10%?
criterion met

In the record for C[C@@H]1[C@@H](C(=O)C[C@H]2O[C@@H]3O[C@]4(C)CC[C@@H]5[C@H](C)CC[C@@H]([C@H]2C)[C@@]35OO4)O[C@@H]2O[C@]3(C)CC[C@H]4[C@H](C)CC[C@@H]1[C@@]24OO3 , is viability (% of control) less than 10%?
criterion met

In the record for Cc1sc2c(c1C)C(c1ccc(Cl)cc1)=N[C@@H](CC(=O)OC(C)(C)C)c1nnc(C)n1-2 , is viability (% of control) less than 10%?
criterion met

In the record for CC(O)(CS(=O)(=O)c1ccc(F)cc1)C(=O)Nc1ccc(C#N)c(C(F)(F)F)c1 (centres undefined) , is viability (% of control) less than 10%?
criterion met

In the record for Cn1cc(C2=C(c3cn(C4CCN(Cc5ccccn5)CC4)c4ccccc34)C(=O)NC2=O)c2ccccc21 , is viability (% of control) less than 10%?
criterion not met

***
In the record for CC1=C2C[C@@H]3[C@@H](CC=C4C[C@@H](O)CC[C@@]43C)[C@@H]2CC[C@]12O[C@H]1C[C@H](C)CN[C@H]1[C@H]2C , is viability (% of control) less than 10%?
criterion not met

In the record for O=C(O)C(=O)c1cn(Cc2ccccc2)c2ccc(-c3ccc(OC(F)(F)F)cc3)cc12 , is viability (% of control) less than 10%?
criterion not met

In the record for CCCC(C)(COC(N)=O)COC(=O)NC(C)C (centres undefined) , is viability (% of control) less than 10%?
criterion not met

In the record for CN(C)CCN(C)CCc1ccc(Cl)c(Cl)c1 , is viability (% of control) less than 10%?
criterion not met

In the record for CNC(=O)N1N=C(c2ccc(N)cc2)c2cc3c(cc2CC1C)OCO3 (centres undefined) , is viability (% of control) less than 10%?
criterion met

In the record for COC[C@@H](NC(C)=O)C(=O)NCc1ccccc1 , is viability (% of control) less than 10%?
criterion not met

In the record for CN1CCN(C(=O)O[C@H]2c3nccnc3C(=O)N2c2ccc(Cl)cn2)CC1 , is viability (% of control) less than 10%?
criterion not met

In the record for CC(C)CC(N(C)C)C1(c2ccc(Cl)cc2)CCC1 (centres undefined) , is viability (% of control) less than 10%?
criterion not met

In the record for COc1ccc2c(c1OC)CN1CCc3cc4c(cc3C1C2)OCO4 (centres undefined) , is viability (% of control) less than 10%?
criterion not met

====

- Test system: CP335
- method_notes: qHTS profiling for inhibitors of Plasmodium falciparum proliferation (AID 504749); note: nearly all actives have a fitted effect of over 60% in size
- test_settings: P. falciparum in erythrocytes, SYBR Green DNA, 72 h; series mostly up to 28.7 µM
Results filed as inconclusive are left out. Calls of active or inactive are those of the source. The call rests on the fitted dose curve; in most records, active means well fitted inhibition curve with a large enough effect; inconclusive means small, poorly fitted or top-dose-only effect; inactive means flat fitted curve, though single readings scatter.
Answer with one of the outcomes yes (1) for active, no (0) for inactive

Outcome? Cn1c(CCCC(=O)O)nc2cc(N(CCCl)CCCl)ccc21
no (0)

Outcome? NP(N)(=O)NC(=O)c1ccc(F)cc1
no (0)

Outcome? CCCC1CCCCN1 (configuration not stated)
no (0)

Outcome? Oc1ccccc1-c1ccccc1
no (0)

Outcome? CN1C[C@H](CNC(=O)OCc2ccccc2)C[C@@H]2c3cccc4c3c(cn4C)C[C@H]21
yes (1)

***
Outcome? c1ccc2c(c1)Nc1ccccc1S2
yes (1)

Outcome? O=C(NC(O)C(Cl)(Cl)Cl)NC(O)C(Cl)(Cl)Cl (configuration not stated)
no (0)

Outcome? CCC(C(N)=O)N1CCCC1=O (configuration not stated)
no (0)

Outcome? Cc1ccc(-c2nc3ccc(C)cn3c2CC(=O)N(C)C)cc1
no (0)

Outcome? CC1OC(C)OC(C)O1 (configuration not stated)
no (0)

Outcome? CCOC(=O)C1(c2ccccc2)CCN(CCC(C#N)(c2ccccc2)c2ccccc2)CC1
yes (1)

Outcome? O=P1(NCCCl)OCCCN1CCCl (configuration not stated)
no (0)

Outcome? CCCN1CCC[C@@H]2Cc3[nH]ncc3C[C@H]21
no (0)

Outcome? FC(F)(F)c1cccc(C2=CCN(CCc3ccc4ccccc4c3)CC2)c1
no (0)

====

- test_settings: Ebola virus entry cell assay, ratio channel
Activity calls are given as the source filed them.
Answer with one of the outcomes active, inactive

Outcome? O=C(C1CCCCC1)N1CC(=O)N2CCc3ccccc3C2C1 (centres undefined)
inactive

Outcome? Cc1onc(-c2c(Cl)cccc2Cl)c1C(=O)N[C@@H]1C(=O)N2[C@@H]1SC(C)(C)[C@@H]2C(=O)O
inactive

Outcome? NS(=O)(=O)c1cc2c(cc1Cl)NC=NS2(=O)=O
inactive

Outcome? Cc1nccn1CC1CCc2c(c3ccccc3n2C)C1=O (centres undefined)
inactive

Outcome? N=C(N)c1ccc(OCCCCCOc2ccc(C(=N)N)cc2)cc1
inactive

Outcome? CCC(=O)O[C@H]1[C@H](O[C@@H]2[C@@H](C)[C@H](O[C@H]3C[C@@](C)(OC)[C@@H](O)[C@H](C)O3)[C@@H](C)C(=O)O[C@H](CC)[C@@](C)(O)[C@H](O)[C@@H](C)C(=O)[C@H](C)C[C@@]2(C)O)O[C@H](C)C[C@@H]1N(C)C
inactive

Outcome? CN1CCN(CCCN2c3ccccc3Sc3ccc(C(F)(F)F)cc32)CC1
active

Outcome? CN(C)CCC[C@@]1(c2ccc(F)cc2)OCc2cc(C#N)ccc21
inactive

***
Outcome? COc1ccc([C@@H]2Sc3ccccc3N(CCN(C)C)C(=O)[C@@H]2OC(C)=O)cc1
inactive

Outcome? Cc1cn[nH]c1
inactive

Outcome? O=C1Nc2ccc(Cl)cc2[C@@](C#CC2CC2)(C(F)(F)F)O1
inactive

Outcome? O=C1CCc2cc(OCCCCc3nnnn3C3CCCCC3)ccc2N1
inactive

Outcome? O=C1NC(c2ccccc2)(c2ccccc2)C(=O)N1COP(=O)(O)O
inactive

Outcome? CC(C)C[C@H](NC(=O)[C@H](Cc1ccccc1)NC(=O)c1cnccn1)B(O)O
inactive
